Overview of reported log10 of IC50 across a group of compounds:
biological target: recombinant human NF-kappaB-inducing kinase (NIK/MAP3K14) (Homo sapiens (Human), UniProt Q99558); assay: Inhibition of auto-phosphorylation of recombinant human NIK/MAP3K14 activity (AlphaScreen); format: biochemical; conditions: averaged values over all measurements on all batches
Sequence (Q99558 whole entry): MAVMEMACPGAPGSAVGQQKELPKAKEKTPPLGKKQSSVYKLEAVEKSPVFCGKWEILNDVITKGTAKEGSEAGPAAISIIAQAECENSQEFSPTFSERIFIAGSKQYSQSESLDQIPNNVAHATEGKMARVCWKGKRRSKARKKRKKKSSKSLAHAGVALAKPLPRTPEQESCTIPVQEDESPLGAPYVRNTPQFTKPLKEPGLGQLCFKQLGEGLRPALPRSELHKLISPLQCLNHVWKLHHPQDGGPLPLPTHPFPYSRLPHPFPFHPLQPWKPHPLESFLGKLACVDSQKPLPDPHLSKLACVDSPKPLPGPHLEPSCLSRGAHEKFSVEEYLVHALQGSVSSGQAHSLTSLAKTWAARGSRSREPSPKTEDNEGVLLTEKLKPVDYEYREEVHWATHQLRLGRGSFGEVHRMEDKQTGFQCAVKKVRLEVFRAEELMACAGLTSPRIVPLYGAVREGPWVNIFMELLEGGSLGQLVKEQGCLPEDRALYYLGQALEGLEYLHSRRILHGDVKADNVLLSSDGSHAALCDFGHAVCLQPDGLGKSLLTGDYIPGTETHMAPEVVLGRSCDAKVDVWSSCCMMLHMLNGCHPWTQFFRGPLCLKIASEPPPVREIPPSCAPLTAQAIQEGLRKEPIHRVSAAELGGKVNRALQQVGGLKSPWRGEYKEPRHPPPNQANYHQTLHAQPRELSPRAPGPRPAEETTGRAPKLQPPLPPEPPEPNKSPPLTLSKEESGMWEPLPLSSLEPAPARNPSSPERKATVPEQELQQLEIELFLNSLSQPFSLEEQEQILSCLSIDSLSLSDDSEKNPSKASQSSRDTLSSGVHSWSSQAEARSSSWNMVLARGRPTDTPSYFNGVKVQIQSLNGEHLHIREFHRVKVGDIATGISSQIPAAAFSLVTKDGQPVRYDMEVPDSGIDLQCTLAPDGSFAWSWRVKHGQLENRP
metric-name: log10 of IC50 (log10 of the value in nM)

- CC(C)n1nc(Nc2nccc(-c3cc(C#N)c4c(c3)[C@@](C)(CO)CN4)n2)cc1C(=O)NC1CC1: 0.41
- Cc1cc(Nc2nccc(-c3cc(C#N)c4c(c3)[C@@](C)(CO)CN4)n2)nn1CC1CCCCO1 (stereo partly drawn) [Compound 71]: 0.45
- C[C@]1(CO)CNc2c(C#N)cc(-c3ccnc(Nc4cc(Cl)nn4CCC4CC4)n3)cc21: 0.66
- Cc1cc(Nc2nccc(-c3cc(C#N)c4c(c3)[C@@](C)(CO)CN4)n2)n(CCN2CCOCC2)n1: 0.93
- Cc1cc(Nc2nccc(-c3cc(C#N)c4c(c3)[C@@](C)(CO)CN4)n2)n(CC(=O)N(C)C(C)C)n1: 0.92
- Cc1cc(Nc2nccc(-c3cc(C#N)c4c(c3)[C@@](C)(CO)CN4)n2)n(CC(=O)N(C2CC2)C2CC2)n1: 0.59
- CN1CCN(C(=O)c2nn(CC(F)F)cc2Nc2nccc(-c3cc(C#N)c4c(c3)[C@@](C)(CO)CN4)n2)CC1: 0.73
- Cc1cc(Nc2nccc(-c3cc(C#N)c4c(c3)[C@@](C)(CO)CN4)n2)n(C2CCN(C)CC2)n1: 1.36
- C[C@]1(CO)CNc2c(C#N)cc(-c3ccnc(Nc4cn(CC(F)F)nc4C4CC4)n3)cc21: 0.34
- COCCn1nc(CO)cc1Nc1nccc(-c2cc(C#N)c3c(c2)[C@@](C)(CO)CN3)n1: 0.63
- C[C@]1(CO)CNc2c(C#N)cc(-c3ccnc(Nc4cc(Cl)nn4C[C@H]4CCCO4)n3)cc21: 0.78
- Cc1nnc(Nc2nccc(-c3cc(C#N)c4c(c3)C(C)(CO)CN4)n2)o1 (stereo not drawn): 1.62
- C[C@]1(CO)CNc2c(C#N)cc(-c3ccnc(Nc4cc(Cl)nn4C[C@@H]4COCCO4)n3)cc21: 0.68
- CN1CCC(Cn2nc(Cl)cc2Nc2nccc(-c3cc(C#N)c4c(c3)[C@@](C)(CO)CN4)n2)CC1: 0.83
